- experimental-target: Arachidonate 5-lipoxygenase (Bos taurus) (UniProt Q9BEG3)
- Sequence (Q9BEG3 as listed by the source): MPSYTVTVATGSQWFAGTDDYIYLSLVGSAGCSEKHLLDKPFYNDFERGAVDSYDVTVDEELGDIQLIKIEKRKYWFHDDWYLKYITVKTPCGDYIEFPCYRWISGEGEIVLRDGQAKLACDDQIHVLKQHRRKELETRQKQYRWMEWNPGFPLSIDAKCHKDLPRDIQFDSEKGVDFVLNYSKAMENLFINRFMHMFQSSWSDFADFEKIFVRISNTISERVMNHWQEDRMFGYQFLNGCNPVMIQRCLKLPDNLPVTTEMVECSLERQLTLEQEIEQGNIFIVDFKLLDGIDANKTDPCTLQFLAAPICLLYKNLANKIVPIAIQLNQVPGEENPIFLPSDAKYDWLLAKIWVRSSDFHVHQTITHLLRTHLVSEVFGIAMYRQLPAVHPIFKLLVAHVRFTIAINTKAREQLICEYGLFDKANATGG
- method: Inhibitory activity against 5-lipoxygenase (inhibition of 5-HETE and LTB4 biosynthesis) in bovine polymorphonuclear leukocytes (PMNL) at 30 uM
- Assay type: cell-based
property: inhibition (%)
Respond numerically; units are % and should not be typed.

Request: # lookup: inhibition of `O=C1c2c(O)cccc2C(=CCCCCc2ccccc2)c2cccc(O)c21`
Response: 0

Request: # lookup: inhibition of `Cc1ccc(C=C2c3cccc(O)c3C(=O)c3c(O)cccc32)cc1`
Response: 23

Request: # lookup: inhibition of `N#Cc1ccc(C=C2c3cccc(O)c3C(=O)c3c(O)cccc32)cc1`
Response: 34

###

I'd appreciate it if you could supply pIC50 values for the items below.
- experimental-target: Arachidonate 5-lipoxygenase (Bos taurus, UniProt Q9BEG3)
- Sequence (Q9BEG3 whole entry): as the sequence (Q9BEG3 as listed by the source) above
- method: Inhibitory activity against 5-lipoxygenase (inhibition of 5-HETE and LTB4 biosynthesis) in bovine polymorphonuclear leukocytes (PMNL).
Just so you know, pIC50 here is -log10 of the concentration in molar units; reply with that number alone.

Request: # lookup: pIC50 of `CCCC(=O)C1c2cccc(O)c2C(=O)c2c(O)cccc21`
Response: 4.48

Request: # lookup: pIC50 of `O=C1c2c(O)cccc2C(=Cc2ccc(O)cc2)c2cccc(O)c21`
Response: 5.40

Request: # lookup: pIC50 of `O=C1c2c(O)cccc2C(C(=O)/C=C/c2ccc([N+](=O)[O-])cc2)c2cccc(O)c21`
Response: 5.22

Request: # lookup: pIC50 of `O=C1c2c(O)cccc2C(C(=O)CCc2ccc(OCc3ccccc3)cc2)c2cccc(O)c21`
Response: 5.70

Request: # lookup: pIC50 of `COc1ccc(CCC(=O)C2c3cccc(O)c3C(=O)c3c(O)cccc32)cc1`
Response: 6.00

Request: # lookup: pIC50 of `COc1ccc(CCC(=O)C2c3cccc(O)c3C(=O)c3c(O)cccc32)cc1OC`
Response: 4.77

Request: # lookup: pIC50 of `COc1ccc(CC(=O)C2c3cccc(O)c3C(=O)c3c(O)cccc32)cc1`
Response: 6.30

Request: # lookup: pIC50 of `O=C1c2c(O)cccc2C(=Cc2ccc([N+](=O)[O-])cc2)c2cccc(O)c21`
Response: 5.70

###

- method: Reducing activity against 2,2-diphenyl-1-picrylhydrazyl
- Type: ADME
property: kDPPH

Request: # lookup: kDPPH of `O=C1c2c(O)cccc2C(=Cc2ccc(O)c(O)c2)c2cccc(O)c21`
Response: > 100 M⁻¹ s⁻¹

Request: # lookup: kDPPH of `COc1ccc(CC(=O)C2c3cccc(O)c3C(=O)c3c(O)cccc32)cc1`
Response: 15.1 M⁻¹ s⁻¹

Request: # lookup: kDPPH of `O=C1c2c(O)cccc2C(C(=O)Cc2ccc(OCc3ccccc3)cc2)c2cccc(O)c21`
Response: 13.3 M⁻¹ s⁻¹

Request: # lookup: kDPPH of `O=C1c2c(O)cccc2C(C(=O)Cc2ccc(O)c(O)c2)c2cccc(O)c21`
Response: > 100 M⁻¹ s⁻¹

Request: # lookup: kDPPH of `O=C1c2c(O)cccc2C(C(=O)CCCc2ccccc2)c2cccc(O)c21`
Response: 10.1 M⁻¹ s⁻¹

Request: # lookup: kDPPH of `O=C1c2c(O)cccc2C(C(=O)/C=C/c2ccc([N+](=O)[O-])cc2)c2cccc(O)c21`
Response: > 100 M⁻¹ s⁻¹

Request: # lookup: kDPPH of `O=C1c2c(O)cccc2C(=CCCCCc2ccccc2)c2cccc(O)c21`
Response: < 1 M⁻¹ s⁻¹

Request: # lookup: kDPPH of `COc1ccc(C=C2c3cccc(O)c3C(=O)c3c(O)cccc32)cc1`
Response: < 1 M⁻¹ s⁻¹

Request: # lookup: kDPPH of `O=C1c2c(O)cccc2C(=Cc2ccc(O)cc2)c2cccc(O)c21`
Response: > 100 M⁻¹ s⁻¹

###

- method: Reducing activity against 2,2-diphenyl-1-picrylhydrazyl
- Format: ADME
property: kDPPH

Request: # lookup: kDPPH of `CC(C)(C)c1cc(CC(=O)C2c3cccc(O)c3C(=O)c3c(O)cccc32)cc(C(C)(C)C)c1O`
Response: > 100 M⁻¹ s⁻¹

Request: # lookup: kDPPH of `Cc1ccc(C=C2c3cccc(O)c3C(=O)c3c(O)cccc32)cc1`
Response: < 1 M⁻¹ s⁻¹

Request: # lookup: kDPPH of CC(Cc1ccc(O)c(O)c1)C(C)Cc1ccc(O)c(O)c1 (centres undefined) [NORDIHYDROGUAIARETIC ACID]
Response: > 100 M⁻¹ s⁻¹

Request: # lookup: kDPPH of `O=C(O)c1ccc(C=C2c3cccc(O)c3C(=O)c3c(O)cccc32)cc1`
Response: < 1 M⁻¹ s⁻¹

Request: # lookup: kDPPH of `O=C1c2c(O)cccc2C(=Cc2ccc(C(F)(F)F)cc2)c2cccc(O)c21`
Response: < 1 M⁻¹ s⁻¹

Request: # lookup: kDPPH of `O=C1c2c(O)cccc2C(=Cc2cc(O)c(O)c(O)c2)c2cccc(O)c21`
Response: > 100 M⁻¹ s⁻¹

Request: # lookup: kDPPH of `COc1ccc(C=C2c3cccc(O)c3C(=O)c3c(O)cccc32)cc1OC`
Response: < 1 M⁻¹ s⁻¹

Request: # lookup: kDPPH of `COc1cccc(/C=C/C(=O)C2c3cccc(O)c3C(=O)c3c(O)cccc32)c1`
Response: > 100 M⁻¹ s⁻¹

Request: # lookup: kDPPH of `O=C1c2c(O)cccc2C(=CCc2ccccc2)c2cccc(O)c21`
Response: < 1 M⁻¹ s⁻¹

###

- method: Deoxyribose-damaging property as a measure of hydroxyl-radical formation (uM test compound)
I'd appreciate it if you could supply Deoxyribose degradation (uM of MDA mM-1) values for the items below.

Request: # lookup: Deoxyribose degradation (uM of MDA mM-1) of `O=C1c2c(O)cccc2C(=Cc2ccc(C(F)(F)F)cc2)c2cccc(O)c21`
Response: < 0.15

Request: # lookup: Deoxyribose degradation (uM of MDA mM-1) of `COC(=O)c1ccc(C=C2c3cccc(O)c3C(=O)c3c(O)cccc32)cc1`
Response: < 0.15

Request: # lookup: Deoxyribose degradation (uM of MDA mM-1) of `O=C1c2c(O)cccc2C(C(=O)CCc2ccc(OCc3ccccc3)cc2)c2cccc(O)c21`
Response: < 0.2

Request: # lookup: Deoxyribose degradation (uM of MDA mM-1) of `O=C1c2c(O)cccc2C(=Cc2ccc(O)cc2)c2cccc(O)c21`
Response: < 0.15

Request: # lookup: Deoxyribose degradation (uM of MDA mM-1) of `O=C1c2c(O)cccc2C(C(=O)CCCCc2ccccc2)c2cccc(O)c21`
Response: < 0.2

Request: # lookup: Deoxyribose degradation (uM of MDA mM-1) of `O=C1c2c(O)cccc2C(=Cc2ccc([N+](=O)[O-])cc2)c2cccc(O)c21`
Response: < 0.15

Request: # lookup: Deoxyribose degradation (uM of MDA mM-1) of `O=C1c2c(O)cccc2C(=Cc2ccccc2)c2cccc(O)c21`
Response: < 0.15

Request: # lookup: Deoxyribose degradation (uM of MDA mM-1) of `COc1ccc(CC(=O)C2c3cccc(O)c3C(=O)c3c(O)cccc32)cc1`
Response: < 0.2
